meta.source: PubChem BioAssay

# EXPERIMENTAL TARGET: NADPH oxidase 2 (Homo sapiens)
# PROTOCOL SUMMARY: NOX2-dependent H2O2 signal modulators, primary screen, NOX inhibitor project, cell-based, HEK293-NOX2, PMA-stimulated, Amplex Red fluorescence (AID 1159); also: test concentration not given here
# PARTICULARS: 45 min, higher = more signal, called active from +8 up or from −8 down
Listed next: entries and their corresponding z-score.
Give only the figure.

Before answering, review these 2 worked examples.
COc1cc2c(cc1OC)CN(C(=O)[C@@H]1[C@H]3C(=O)O[C@H](c4ccccc4)[C@H](c4ccccc4)N3[C@H](c3ccc(OCCO)cc3)[C@@]13C(=O)Nc1ccc(C#CC4(O)CCCCCC4)cc13)CC2; 0.737
CCOC(=O)C1=CC[C@@H](c2ccc(OCc3ccccc3)c(OC)c2)N(S(=O)(=O)c2ccc(C)cc2)[C@H]1c1ccc(SC)cc1; 0.877

Continue with the next molecule.
Record CC[C@H]1C2=C3C(CC[C@H]4C(OCc5ccc(F)cc5C(F)(F)F)OC[C@](C)([C@@H]34)N(C(=O)OC(C)(C)C)C2)C(COC)C1COC (stereo partly drawn) . Reported z-score: -0.67

###

# EXPERIMENTAL TARGET: Neurogenic locus notch homolog protein 3 (Homo sapiens)
# PROTOCOL SUMMARY: NOTCH3 binders on small-molecule microarray, primary screen, biochemical, 635/667 nm fluorescence (AID 1096)
# PARTICULARS: NOTCH3 binding, 635 nm fluorescence, higher = more signal
Outcome label depends on composite z-score relative to 1: at/above gives met, below gives not met.

Look over these answered cases.
COC(=O)[C@@]1(Cc2ccccc2)[C@@H]2C(=CC(=O)[C@H]2CC(=O)C(=O)N(C)C)CN1C(=O)c1ccccc1; met
COC(=O)[C@@]1(Cc2ccccc2)[C@H]2c3cc(C(=O)N(C)C)n(CCc4ccc(O)c(OC)c4)c3C[C@H]2CN1C(=O)c1ccccc1; not met
COc1ccc([Si](C)(C)[C@@H]2[C@@H](CC(=O)N3Cc4ccccc4C[C@H]3CO)O[C@]3(C(=O)N(C)c4ccccc43)[C@H]2C)cc1; met

Hi team, for CCCC[C@@H]1C[C@H]1[C@@H](NC(=O)c1cccs1)c1ccc(C(F)(F)F)cc1 , is the recorded composite z-score at or above 1?
not met

Say whether [N-]=[N+]=NCc1ccccc1C[C@@]1(C(=O)NCc2ccccc2)N=C(c2ccc(OCCCO)cc2)O[C@@H]1c1ccccc1N=[N+]=[N-] shows composite z-score of 1 or more.
not met

API: above_or_equal(metric=composite z-score, cutoff=1) for item C[N+](C)(C)CCCCCCNC(=O)[C@H]1C[C@H]2C(=O)NCC(=O)N2[C@H]1c1ccc(O)cc1
met

Is reported composite z-score greater than or equal to 1 here: COCCCNC(=O)[C@@]1(Cc2ccccc2N=[N+]=[N-])COC(c2ccc(OCCCO)cc2)=N1
not met

Is reported composite z-score greater than or equal to 1 here: CN(C)C(=O)C1N=C(c2ccc(OCCCO)cc2)N(c2ccccc2)O1 (stereo unspecified)
met

# bool: composite z-score of COc1ccc([Si](C)(C)[C@@H]2[C@@H](CCO)O[C@]3(C(=O)N(Cc4ccc(N5CCCCC5=O)cc4)c4ccccc43)[C@H]2C)cc1 >= 1
met

###

# PROTOCOL SUMMARY: E. coli DRC41 culture turbidity changes, primary screen, E. coli filamentation inducer project, strain DRC41, OD650, 48 h (AID 1152);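 also: E. coli MC1000 strain DRC41 lacking acrAB efflux pump and sulA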
# PARTICULARS: E. coli DRC41 (acrAB sulA), higher = more signal, called active from +8 up or from −8 down
TEST READOUT: z-score
Provide a numeric answer; units are not to be included.

Kindly note the recorded z-score for C=CCN1C(=O)[C@@]2(O[C@@H](CCn3cc([C@H](O)c4ccccc4)nn3)[C@H]([Si](C)(C)c3ccc(OC)cc3)[C@H]2C)c2cc(N3CCC3=O)ccc21 , which is 0.359

Form field z-score, entry CCCCCCCCCCC(O)C1C=CC2C(=O)N(C)C(=O)C2N1Nc1ccc([N+](=O)[O-])cc1[N+](=O)[O-] (configuration not stated) : -1.97

So, CN(C)C(=O)C1N=C(c2ccc(OCCCO)cc2)N(c2ccccc2)O1 (configuration not stated) ? Its z-score was 0.975

For this compound ( O=C(NCC(F)(F)F)[C@@H]1c2ccccc2C(=O)N(Cc2cc(F)cc(C(F)(F)F)c2)[C@H]1c1ccc(CO)cc1 ), measured z-score is 0.319

response.value for C=CCC(OC(C)=O)[C@@H]1[C@@H](N(Cc2cc3ccccc3o2)C(=O)c2ccc(-c3ccccc3)cc2)c2cc(OCCCO)ccc2N1C(=O)c1ccc2ccccc2c1 (some centres not stated) (field: z-score) = -0.966

# z-score of [N-]=[N+]=NCc1ccccc1[C@@H]1OC(c2ccc(OCCCO)cc2)=N[C@]1(CCS(=O)(=O)c1ccccc1)C(=O)NCC(O)CO (some centres not stated) = 0.766

For O=C1OCC=C[C@H]2OC34C=CCN(c5ccc(Cl)cc5)C(=O)[C@H]3N(CCO)C(=O)[C@@H]4[C@@H]12 (some centres not stated) the compound record lists z-score as -0.367

###

# EXPERIMENTAL TARGET: Follistatin-related protein 3 (Homo sapiens) (UniProt O95633)
# Sequence (O95633 whole entry, looked up): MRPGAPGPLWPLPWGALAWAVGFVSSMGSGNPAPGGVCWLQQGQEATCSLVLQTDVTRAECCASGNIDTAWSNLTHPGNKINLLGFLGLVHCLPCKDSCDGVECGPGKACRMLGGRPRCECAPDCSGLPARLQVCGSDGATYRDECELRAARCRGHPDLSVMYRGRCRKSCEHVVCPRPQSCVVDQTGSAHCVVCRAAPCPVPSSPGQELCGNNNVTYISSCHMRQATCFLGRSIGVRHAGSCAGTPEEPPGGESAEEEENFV
# PROTOCOL SUMMARY: FSTL3 binders on small-molecule microarrays, primary screen, biochemical, small-molecule microarray, 635 nm fluorescence (AID 1105);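 also: score merges emission near 667 nm and signal to noise per printed spot across three slides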
# PARTICULARS: FSTL3 binding, higher = more signal
Each record here notes measured composite z-score.
Please reply with the number alone, leaving off any unit.

Solved entries:
[N-]=[N+]=NCc1ccccc1[C@@H]1OC(c2ccc(OCCCO)cc2)=N[C@]1(CCS(=O)(=O)c1ccccc1)C(=O)NCC(O)CO (some centres undefined); 0.6
C=CCOC(=O)[C@H]1[C@@H]2C(=O)O[C@@H](c3ccccc3)[C@@H](c3ccccc3)N2[C@@H](c2ccc(OCCOC(=O)[C@@H]3C[C@@H]4C(=O)N[C@@H](CCCCN(C)C)C(=O)N4[C@@H]3c3ccc(O)cc3)cc2)[C@]12C(=O)Nc1ccccc12; 1.43
CCOC(=O)C1=CC[C@@H](c2ccccc2C(F)(F)F)N(S(=O)(=O)c2ccc(C)cc2)[C@H]1c1ccc(C#N)cc1; 0.772
CCOC(=O)C[C@H]1[C@H](OC(=O)c2ccccc2-c2ccccc2)[C@@H](NC(=O)c2ccc(-c3ccccc3)cc2)c2cc(OCCCO)ccc2N1C(=O)c1ccc2ccccc2n1; 0.749
O=C1O[C@@H](c2ccccc2)[C@@H](c2ccccc2)N2[C@@H](c3ccc(OCCO)cc3)[C@]3(C(=O)Nc4ccccc43)[C@@H](C(=O)O)[C@H]12; -0.415

// COc1ccc([Si](C)(C)[C@H]2[C@H](CCO)O[C@@]3(C(=O)N(Cc4cccc(N5C(=O)COc6ccccc65)c4)c4ccccc43)[C@@H]2C)cc1 : composite z-score value = 0.0253

Query Cc1ccc(S[C@]2(C(=O)NCC(F)(F)F)CC(=O)N(Cc3ccccc3C(F)(F)F)[C@@H]2c2ccc(CO)cc2I)cc1 yields composite z-score of -1.28

composite z-score reading for N#Cc1ccc(NN2C(C(O)c3ccc(F)cc3)C=CC3C(=O)N(c4ccccc4)C(=O)C32)cc1 (centres undefined) : -0.0131

For record COC(=O)[C@@]1(Cc2ccc(OC)cc2)[C@H]2c3cc(C(=O)N4CCCC4)n(Cc4cccc5ccccc45)c3C[C@H]2CN1C(=O)c1ccccc1 the listed composite z-score is 0.293

Documented composite z-score of CCCCC(O)C1C=CC2C(=O)N(c3ccccc3)C(=O)C2N1Nc1ccc(C(C)C)cc1 (centres undefined) : 1.04

Briefly, composite z-score measured for COc1ccc(-c2cc3c(c(CCc4ccccc4)n2)[Si](C(C)C)(C(C)C)OC3)cn1 : 0.282

###

Recorded composite z-score, one value per entry.
# EXPERIMENTAL TARGET: Focal adhesion kinase 1 (Homo sapiens)
# PROTOCOL SUMMARY: small-molecule microarray binders of FAK, primary screen, biochemical, 635/667 nm fluorescence, BSA, DTT (AID 1130);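 also: composite of spot emission at 667 nm and signal to noise over triplicate slides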
# PARTICULARS: PTK2 binding, 635 nm fluorescence, higher = more signal
The answer should be a number; do not append a unit.

[N-]=[N+]=NCc1ccccc1[C@H]1OC(c2ccc(OCCCO)cc2)=N[C@@]1(CCS(=O)(=O)c1ccccc1)C(=O)NCC(O)CO (some centres undefined); 1.33
COCCOC(=O)N1C(=O)[C@@]2(c3cc(C#CC4=CCCCC4)ccc31)[C@H](c1ccccc1OCCO)N1[C@H](c3ccccc3)[C@H](c3ccccc3)OC(=O)[C@H]1[C@@H]2C(=O)N1CCCCCCC1; 0.724
CC1=C([C@H](O)CCc2ccccc2)[C@H](CO)[C@@H]2C(=O)N(C)C(=O)[C@@H]2C1; 0.332
O=C(CS)NCCCCCCNC(=O)[C@H]1C[C@H]2C(=O)N[C@@H](Cc3ccccc3)C(=O)N2[C@H]1c1ccc(O)cc1; 0.904
CCOc1cc(C(O)C2C=CC3C(=O)N(C)C(=O)C3N2Nc2ccccc2)ccc1O (centres undefined); 0.327
COC(=O)C(CC#Cc1ccc2c(c1)[C@]1(C(=O)N2)[C@H](c2ccccc2OCCO)N2[C@H](c3ccccc3)[C@H](c3ccccc3)OC(=O)[C@H]2[C@@H]1C(=O)NC[C@H](O)c1ccccc1)C(=O)OC; 3.08

The compound listed as CC=CC(O)C1C=CC2C(=O)N(c3ccccc3)C(=O)C2N1Nc1ccccc1F (centres undefined) has a reported composite z-score of 0.451

// composite z-score value for [N-]=[N+]=Nc1ccccc1[C@@H]1OC(c2ccc(OCCCO)cc2)=N[C@]1(Cc1ccccc1)C(=O)NCC(O)CO (some centres undefined) : 0.587

Sample COCCOC(=O)N1C(=O)[C@@]2(c3cc(C#CC4=CCCCC4)ccc31)[C@H](C(N)=O)[C@H]1C(=O)O[C@H](c3ccccc3)[C@H](c3ccccc3)N1[C@@H]2c1ccccc1OCCO ; composite z-score observed: 0.143

Reported composite z-score of C=CCC(OC(C)=O)[C@@H]1[C@@H](N(Cc2cc3ccccc3o2)C(=O)c2ccc(-c3ccccc3)cc2)c2cc(OCCCO)ccc2N1C(=O)c1ccc2ccccc2c1 (some centres undefined) : -0.394

Just so you know, measured composite z-score for CCCCC=C[C@@H](NC(=O)c1ccc(-c2ccccc2)cc1)c1ccccc1 came out at 0.416

// recorded composite z-score for CC(CO)N1C(=O)[C@@H]2[C@H]3C(=O)OCC=C[C@H]3OC23C=CCN(Cc2ccccc2)C(=O)[C@@H]13 (some centres undefined) : 0.769

get_value(item= CC(=O)NCCCC[C@@H]1NC(=O)[C@H]2C[C@@H](C(=O)NCCCC[N+](C)(C)C)[C@@H](c3cccc(OCCO)c3)N2C1=O , readout=composite z-score) returns 0.191

The compound CC(C)[Si](C#CCCCC#N)(O[C@H](c1ccccc1)c1cn([C@H](CO)Cc2ccccc2)nn1)C(C)C showed composite z-score equal to 0.26
